Tested on: B16
Assay: Inhibition of alpha-MSH-stimulated melanogenesis in mouse B16 cells assessed as melanin release after 72 hrs
Assay type: functional, cell-based
property.measured: inhibition

- CC(C)=C/C=C1\O[C@H]2C[C@](C)(O)CC(=O)[C@H]2[C@@]1(C)O [OSTERIVOLONE D]: Dose-dependent effect
- C/C=C(/C)C(=O)O[C@H]1Cc2cc3ccc(=O)oc3cc2OC1(C)C [DECURSINOL ANGELATE]: Dose-dependent effect
- CO[C@@]1(C(C=C(C)C)OC(C=C(C)C)[C@]2(O)O[C@H]3CC(C)=CC(=O)[C@H]3[C@@]2(C)O)O[C@H]2CC(C)=CC(=O)[C@H]2[C@@]1(C)O (stereo partly drawn) [OSTERIVOLONE C]: Dose-dependent effect
